biological target: recombinant full-length human IDO1 (Homo sapiens); construct: The GST-tag of IDO1 was removed to obtain untagged full-length IDO1l using PreScission protease; GST (N, cleaved yes); made in house; own inference; assay: Isothermal titration calorimetry (ITC); assay type: binding; conditions: 25 °C
Sequence (P14902 whole entry): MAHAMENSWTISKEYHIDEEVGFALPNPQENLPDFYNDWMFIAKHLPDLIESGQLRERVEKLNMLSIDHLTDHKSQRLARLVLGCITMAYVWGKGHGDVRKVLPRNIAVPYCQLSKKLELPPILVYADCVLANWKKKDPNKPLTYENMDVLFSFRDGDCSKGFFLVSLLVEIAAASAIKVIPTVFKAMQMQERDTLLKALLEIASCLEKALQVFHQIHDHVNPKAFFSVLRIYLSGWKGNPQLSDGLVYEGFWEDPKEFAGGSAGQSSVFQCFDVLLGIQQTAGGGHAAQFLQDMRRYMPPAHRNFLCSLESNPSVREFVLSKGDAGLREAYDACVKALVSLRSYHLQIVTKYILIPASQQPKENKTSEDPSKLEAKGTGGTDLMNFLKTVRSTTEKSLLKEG
attribute-measured: Kd (µM)

molecule	number
C#Cc1ccc(NC(=O)OC[C@]23CN(S(=O)(=O)c4ccc(C(C)(C)C(=O)O)cc4)C[C@H]2C[C@H]2C[C@@H]3C2(C)C)cc1	0.122
C#Cc1ccc(NC(=O)OC[C@]23CN(S(=O)(=O)c4ccc(C(C)(C)C(=O)O)cc4C)C[C@H]2C[C@H]2C[C@@H]3C2(C)C)cc1	0.215

###

target: recombinant human IDO1 (Homo sapiens); construct: The GST-tag of IDO1 was removed to obtain untagged full-length IDO1l using PreScission protease; GST (N, cleaved yes); made in house; own inference; test: IDO1 enzymatic assay in vitro; type: biochemical; settings: at 14 µM; pre-incubation 37 °C 45 min; mean ± SD
Sequence (P14902 whole entry): as above
attribute-measured: inhibition at 14 µM (%)

molecule	unit	qualifier-operator	number
COc1cc(C(C)(C)C(=O)O)ccc1S(=O)(=O)N1C[C@H]2C[C@H]3C[C@H](C3(C)C)[C@@]2(COC(=O)Nc2ccc(I)cc2)C1	%	=	57
CC(C)(C(=O)O)c1ccc(S(=O)(=O)N2C[C@H]3C[C@H]4C[C@H](C4(C)C)[C@@]3(COC(=O)Nc3ccc(I)cc3)C2)cc1	%	=	66
Cc1cc(C(C)(C)C(=O)O)ccc1S(=O)(=O)N1C[C@H]2C[C@H]3C[C@H](C3(C)C)[C@@]2(COC(=O)Nc2ccc(I)cc2)C1	%	=	65
CC(C)(C)c1ccc(S(=O)(=O)N2C[C@H]3C[C@H]4C[C@H](C4(C)C)[C@@]3(COC(=O)Nc3ccc(I)cc3)C2)c(C2CC2)c1	%	=	39
C#Cc1ccc(NC(=O)OC[C@]23CN(S(=O)(=O)c4ccc(C(C)(C)C)cc4C4CC4)C[C@H]2C[C@H]2C[C@@H]3C2(C)C)cc1	%	=	39
C#Cc1ccc(NC(=O)OC[C@]23CN(S(=O)(=O)c4ccc(C(C)(C)C)cc4C)C[C@H]2C[C@H]2C[C@@H]3C2(C)C)cc1	%	=	40
Cc1cc(C(C)(C)C)ccc1S(=O)(=O)N1C[C@H]2C[C@H]3C[C@H](C3(C)C)[C@@]2(COC(=O)Nc2ccc(I)cc2)C1	%	=	25
C#Cc1ccc(NC(=O)OC[C@]23CN(S(=O)(=O)c4ccc(C(C)(C)C(=O)O)cc4C)C[C@H]2C[C@H]2C[C@@H]3C2(C)C)cc1	%	=	64
C#Cc1ccc(NC(=O)OC[C@]23CN(S(=O)(=O)c4ccc(C(C)(C)C(=O)O)cc4)C[C@H]2C[C@H]2C[C@@H]3C2(C)C)cc1	%	=	75
COC(=O)C(C)(C)c1ccc(S(=O)(=O)N2C[C@H]3C[C@H]4C[C@H](C4(C)C)[C@@]3(COC(=O)Nc3ccc(I)cc3)C2)c(Cl)c1	%	<	25
CC(C)(C(=O)O)c1ccc(S(=O)(=O)N2C[C@H]3C[C@H]4C[C@H](C4(C)C)[C@@]3(COC(=O)Nc3ccc(I)cc3)C2)c(Cl)c1	%	=	62
CC(C)(C)c1ccc(S(=O)(=O)N2C[C@H]3C[C@H]4C[C@H](C4(C)C)[C@@]3(COC(=O)Nc3ccc(I)cc3)C2)cc1	%	<	25
CC(C)(C)c1ccc(S(=O)(=O)N2C[C@H]3C[C@H]4C[C@H](C4(C)C)[C@@]3(COC(=O)Nc3ccc(I)cc3)C2)c(I)c1	%	=	16
C#Cc1ccc(NC(=O)OC[C@]23CN(S(=O)(=O)c4ccc(C(C)(C)C)cc4CC)C[C@H]2C[C@H]2C[C@@H]3C2(C)C)cc1	%	=	61
C#Cc1ccc(NC(=O)OC[C@]23CN(S(=O)(=O)c4ccc(C(C)(C)C)cc4)C[C@H]2C[C@H]2C[C@@H]3C2(C)C)cc1	%	<	25
COC(=O)C(C)(C)c1ccc(S(=O)(=O)N2C[C@H]3C[C@H]4C[C@H](C4(C)C)[C@@]3(COC(=O)Nc3ccc(I)cc3)C2)c(OC)c1	%	<	25
CC(C)(C)c1ccc(S(=O)(=O)N2C[C@H]3C[C@H]4C[C@H](C4(C)C)[C@@]3(COC(=O)Nc3ccc(I)cc3)C2)c(Br)c1	%	<	25
COc1cc(C(C)(C)C)ccc1S(=O)(=O)N1C[C@H]2C[C@H]3C[C@H](C3(C)C)[C@@]2(COC(=O)Nc2ccc(I)cc2)C1	%	<	25
CCc1cc(C(C)(C)C)ccc1S(=O)(=O)N1C[C@H]2C[C@H]3C[C@H](C3(C)C)[C@@]2(COC(=O)Nc2ccc(I)cc2)C1	%	=	35
CC(C)(CC(=O)O)c1ccc(S(=O)(=O)N2C[C@H]3C[C@H]4C[C@H](C4(C)C)[C@@]3(COC(=O)Nc3ccc(I)cc3)C2)cc1	%	=	59
Cc1ccc(NC(=O)OC[C@]23CN(S(=O)(=O)c4ccc(C(C)(C)C)cc4)C[C@H]2C[C@H]2C[C@@H]3C2(C)C)cc1	%	<	25
